protocol.text: In vitro skin permeation of 5%w/v MTG in single solvents (Franz diffusion cells), with infinite dose model fitting
Assay type: in vitro ADME, porcine
experimental.conditions: pig, 5%w/v MTG in Maisine; receptor PBS with 0.01%w/v ascorbic acid (Maisine-AA); 48 h; read-out: Kp (permeability coefficient) (converted)
readout: Papp at 48 h, 5 %w/v

• CC[C@@H]1CN2CCc3c([nH]c4cccc(OC)c34)[C@@H]2C[C@@H]1/C(=C\OC)C(=O)OC = 0.00151 ×10⁻⁶ cm/s

====

protocol.text: Mass balance studies after 48-h skin permeation of MTG in solvents
Assay type: in vitro ADME, porcine
experimental.conditions: pig, 5%w/v MTG in Lauroglycol; receptor PBS without ascorbic acid; 48 h; read-out: Total percentage (mass balance recovery)
readout: recovery at 48 h, 5 %w/v

• CC[C@@H]1CN2CCc3c([nH]c4cccc(OC)c34)[C@@H]2C[C@@H]1/C(=C\OC)C(=O)OC = 67.4%
